test: NCI Yeast Anticancer Drug Screen. Data for the sgs1 mgt1 strain (AID 161);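 further: 0% = growth of cultures given vehicle only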; conditions: S. cerevisiae sgs1 mgt1 strain, at 50.0 µM, active compounds read high
About 79,000 compounds went through this panel and 15% of them were active in at least one assay; those are over-represented in the sample as a whole.
observed_property: growth inhibition (%)
Give the value in % but do not write % after it.

Worked cases, growth inhibition given:
O=c1c(-c2ccccc2)coc2ccccc12    8.15
COc1cc(OC)c(NC(=O)Nc2ccc([N+](=O)[O-])cc2OC)cc1Cl    -7.15
Cc1nc2ccc(N)cc2[nH]c1=O    12.8
c1ccc(-c2oc3ccc4ccccc4c3c2-c2ccc(OCCN3CCCC3)cc2)cc1    66.8
CC(=O)Nc1ccc2c(c1)Cc1cccc(O)c1-2    15.9

Record COc1ccc(NC2=CC(=O)c3ccccc3C2=O)cc1 , field growth inhibition: 4.1

Record CCOC(=O)C(=NNc1cc(OC)c(Cl)cc1OC)C(=O)OCC , field growth inhibition: -7.4

Record CS(=O)(=O)CC(O)(c1ccccc1)c1ccccc1 , field growth inhibition: 9.5

---

Measured growth inhibition by item
experiment: NCI Yeast Anticancer Drug Screen. Data for the cln2 rad14 strain (AID 165);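 further: 0% = growth equal to vehicle treated cultures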; conditions: S. cerevisiae cln2 rad14 strain, at 50.0 µM, active compounds read high
This is part of a sample that, as a whole, favours compounds with a hit. Of some 79,000 tested, about 15% had one in any assay.
Give the value in % but do not write % after it.

Worked cases, growth inhibition given:
CCCS(=O)(=O)CCC(=O)c1ccccc1    -13.8
O=C1OCC/C1=C1/NC2CCCCC2NC1=O (centres undefined)    -24.6
C/C(=C1/N=C(c2ccccc2)OC1=O)c1ccccc1    75.7
CC1C(=O)OC(=O)C1C (centres undefined)    4
CCCCCCC(N)=O    -26.9
CC(=O)OC1=NCC(OC(C)=O)=NC1    -16.9

Record CCCCOC(=O)N1CCCCC1 , field growth inhibition: -5.9

Record ClCC/C(=C(/Cl)c1ccccc1)c1ccccc1 , field growth inhibition: 4.8

Record COc1ccc(C2C(=O)c3ccc(OC)cc3OC2c2cccnc2)cc1 (centres undefined) , field growth inhibition: 29.6

Record NC(=O)N/N=C/C(Cc1ccccc1)=N/OCc1ccccc1 , field growth inhibition: -17.6

Record CCCCC1(CCBr)C(=O)NC(=Nc2ccccc2)NC1=O (centres undefined) , field growth inhibition: -41.8

Record O=c1oc2ccccc2c2c1cnn2-c1ccccc1 , field growth inhibition: -5.9

Record O=[N+]([O-])c1cccc(-c2oc(C=Nc3ccccc3)c([N+](=O)[O-])c2-c2cccc([N+](=O)[O-])c2)c1 , field growth inhibition: 14.4

---

test: NCI Yeast Anticancer Drug Screen. Data for the cln2 rad14 strain (AID 165);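 further: 0% = growth equal to vehicle treated cultures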; details: S. cerevisiae cln2 rad14 strain, at 50.0 µM, active compounds read high
This is part of a sample that, as a whole, favours compounds with a hit. Of some 79,000 tested, about 15% had one in any assay.
Label scheme for growth inhibition: lower than -10% is not met, -10% and above is met.

Answered examples (3):
COC(=O)c1nc(N)nc(C(=O)OC)c1C(=O)c1ccc(Cl)cc1Cl    met
CC1OC(c2ccccc2)OC1C (centres undefined)    not met
CCc1cccc(C(=O)O)c1N    met

Is it the case that CCOC(=O)Cc1[nH]c(C(=O)OCC)c(CC(=O)OCC)c1C(=O)OCC has growth inhibition reaching or exceeding -10%?
met

Is it the case that O=C(Nc1ccccc1)c1cccn1-c1ccccc1 has growth inhibition reaching or exceeding -10%?
met

Is it the case that CCCCCC#CC(=O)OCC has growth inhibition reaching or exceeding -10%?
met

Is it the case that Nc1nnnn1-c1cccc(Cl)c1 has growth inhibition reaching or exceeding -10%?
not met

Is it the case that CCOC(=O)[C@]1(Br)CC[C@]1(Br)C(=O)OCC has growth inhibition reaching or exceeding -10%?
met

Is it the case that Oc1ccccc1CNCCNCc1ccccc1O has growth inhibition reaching or exceeding -10%?
met

Is it the case that CCCCCCC(=O)/C=C/c1ccc(OC)cc1 has growth inhibition reaching or exceeding -10%?
met

Is it the case that C=C1[C@H](OCC(C)C)[C@@H](OCC(C)C)[C@@H](O)C(C)(C)/C=C/[C@H](C)C(=O)[C@@]2(O)C[C@H](C)[C@H](O)[C@@H]2[C@H]1OCC(C)C has growth inhibition reaching or exceeding -10%?
not met

Is it the case that COC(=O)c1cc2c(cc1CC(Cc1ccc3c(c1)CCCC3)C(=O)OC)CCCC2 (centres undefined) has growth inhibition reaching or exceeding -10%?
met

---

Assay: NCI Yeast Anticancer Drug Screen. Data for the sgs1 mgt1 strain (AID 161);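 further: 0% = growth of cultures given vehicle only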
Settings: S. cerevisiae sgs1 mgt1 strain, at 50.0 µM, active compounds read high
Description: Growth inhibition of yeast strains with defined genetic alterations is measured as a screen for potential anti-cancer activity. Selected strains with alterations in DNA damage repair or cell cycle control were exposed to compounds and growth inhibition was measured relative to vehicle treated controls. The strain used in this assay is sgs1 mgt1
The panel holds about 79,000 compounds, 15% with a hit somewhere; the sample as a whole holds those more often.
Measured growth inhibition by item
Give the value in % but do not write % after it.

CC(=O)C(=C(c1ccccc1)c1ccccc1)c1ccccc1    -32.9
COc1cc(OC)cc(C2OC(N)=C(O)C2=O)c1 (stereo unspecified)    13
CCN(CC)CCn1[nH]c2c3ccc(=O)cc3sc3c(NCCN)ccc1c32    -12.7
CC1(O)c2ccccc2-c2c1n([O-])c1ccccc1[n+]2=O (stereo unspecified)    12.2
CC(=O)Nc1ccc(NS(=O)(=O)c2ccc3nc(C)n(NS(=O)(=O)c4ccc(NC(C)=O)cc4)c(=O)c3c2)cc1    29.1
COc1cc(OC)cc(OCc2nc3cc(C(F)(F)F)ccc3nc2-c2ccccc2)c1    5.9

Record Cc1ccc(S(=O)(=O)C(=S)N(C)N(C)C)cc1 , field growth inhibition: 36.4

Record CS(=O)(=O)c1ccc(N2CCCCC2)c([N+](=O)[O-])c1 , field growth inhibition: 27.6

Record O=C1c2cc3c(cc2C(=O)c2[nH]ncc21)OCO3 , field growth inhibition: 16.7

Record CO/C=C/CCCNCc1ccccc1 , field growth inhibition: 20.6

Record Cn1cnc2ncnc(Nc3ccc(Cl)cc3)c21 , field growth inhibition: 4

---

experiment: NCI Yeast Anticancer Drug Screen. Data for the mec2-1 strain (AID 157); details: S. cerevisiae mec2-1 strain, at 50.0 µM
About 79,000 compounds went through this panel and 15% of them were active in at least one assay; those are over-represented in the sample as a whole. Calls of active or inactive are those of the source. Cut-off read from the data, not from the text of the source: active = growth inhibition above about 70%; inactive = the rest.
Can you answer with just one of these options? YES = active, NO = inactive

Cc1c(CO)[n+](=O)c2ccccc2n1[O-]    NO
CCCCNS(=O)(=O)c1n[nH]c(=O)[nH]c1=O    NO
CC(=O)C/C(C)=N\NC(=O)c1ccc([N+](=O)[O-])cc1    NO
Cc1cc(Cl)ccc1NC(=O)CCCC(=O)C1CCC/C1=N\NC(=O)CC#N (stereo not given)    NO

Field: outcome | Entry: Cn1cc(/C=C/C(=O)c2ccccc2[N+](=O)[O-])c2ccccc21
NO

Field: outcome | Entry: CCOC1=NC(C)C(C)N1 (stereo not given)
NO

Field: outcome | Entry: Cc1cc(=O)[nH]c(NN)n1
NO

Field: outcome | Entry: O=C(Nc1nccs1)Nc1ccc(Cl)cc1[N+](=O)[O-]
NO

---

test: NCI Yeast Anticancer Drug Screen. Data for the bub3 strain (AID 167); settings: S. cerevisiae bub3 mutant strain, at 50.0 µM, active compounds read high
This is part of a sample that, as a whole, favours compounds with a hit. Of some 79,000 tested, about 15% had one in any assay.
observed_property: growth inhibition (%)
Give the value in % but do not write % after it.

CC(C)=C1C2C=CC1C(CO)C2CO (stereo not drawn)    2.2
COc1ccc(-c2nnc(N)o2)cc1OC    -13.9
CCOC(=O)C(=O)O    -5.05
Cc1ccc(N=C(N)NC#N)cc1    -34
N#Cc1c(C#N)c(-c2ccccc2)n(-c2ccccc2)c1N    -11.2
CC(=O)C1OC1c1ccccn1 (stereo not drawn)    3.4

Record CS(=O)(=O)/C=C/c1ccccc1 , field growth inhibition: -2.1

Record COC/C=C\COC , field growth inhibition: -6.3

Record COC(=O)Nc1cccc(-c2nc3ccc(NC(=O)OC)cc3c(=O)n2-c2ccccc2)c1 , field growth inhibition: -15.8

Record CC(NC(=O)C(N)CC(=O)O)NC(=O)C1CCC1 (stereo not drawn) , field growth inhibition: 8.6

Record Cc1ccc(N=C2c3cc([N+](=O)[O-])ccc3-c3ccc([N+](=O)[O-])cc32)cc1 , field growth inhibition: -4

Record O=S(=O)(Cl)c1cccc2c(S(=O)(=O)Cl)cccc12 , field growth inhibition: -10.4

Record NC(=O)c1ncn2c(=O)n(CCl)nnc12 , field growth inhibition: 57.5

Where these numbers come from: PubChem BioAssay (NCI)
